Data origin, for the record: patent US20210198277A1

Molecular target: human EHMT2 913-1193 (Homo sapiens, UniProt Q96KQ7)
Construct: recombinant purified human EHMT2 913-1193, Viva; purchased Viva
Sequence (Q96KQ7 913-1193): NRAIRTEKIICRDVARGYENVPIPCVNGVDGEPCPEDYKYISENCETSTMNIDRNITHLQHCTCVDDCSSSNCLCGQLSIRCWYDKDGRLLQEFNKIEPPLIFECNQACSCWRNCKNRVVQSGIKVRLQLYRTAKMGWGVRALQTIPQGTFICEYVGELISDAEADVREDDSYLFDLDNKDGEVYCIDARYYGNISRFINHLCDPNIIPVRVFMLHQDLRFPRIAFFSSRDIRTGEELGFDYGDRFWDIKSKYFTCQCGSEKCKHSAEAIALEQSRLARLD
Assay: EHMT2 enzyme assay on histone peptide substrate (EHMT2 PEP)
Format: biochemical
Conditions: Table III; read-out: EHMT2 PEP (IC50 μM)
ATTRIBUTE_MEASURED: IC50

Here are 10 compounds together with their reported answers.
CNc1ccnc(Nc2ccc(OC)c(OCC3CCCN(C)C3)c2)n1 (stereo not shown) : 0.1 to 1 µM
CNc1nc(Nc2ccc(OC)c(OCCCN3CCCC3)c2)nc2c1CCC2 : 0.1 to 1 µM
COc1ccc(Nc2ncc3ncn(C)c3n2)cc1OCCCN1CCCC1 : > 10 µM
CNc1cc(Nc2cc(OCCCN3CCCC3)c(OC)cn2)cc(C)n1 : 0.1 to 1 µM
COc1ccc(Nc2cccc3cn(C)nc23)cc1OCCCN1CCCC1 : > 10 µM
CNc1cc(C)nc(Nc2ccc(OC)c(OC[C@H]3C[C@@H](N(C)C)C3)c2)n1 : 1 to 10 µM
CNc1ccnc(Nc2cccc(N3CC(N)CC3=O)c2)n1 (stereo not shown) : > 10 µM
CNc1cc(C)nc(Nc2ccc(OC)c(OC3CCN(CC4CC4)CC3)c2)n1 : > 10 µM
CNc1ccnc(Nc2ccc3cnn(CCCN(C)C)c3c2)n1 : > 10 µM
CNc1ccnc(Nc2ccc(OC)c(OCC3CCN(C)C3)c2)n1 (single isomer, unassigned) [Compound 416] : < 0.1 µM

### Prompt Value lookup for IC50; key = CNc1cc(C)nc(Nc2ccc(C3CC3)c(OCCCN3CCCC3)c2)n1
### Response 0.1 to 1 µM

### Prompt Next compound: COc1ccc(Nc2nccc(NCC3CCOCC3)n2)cc1OC1CC2(C1)CN(C)C2
### Response > 10 µM

### Prompt // repeat for COc1ccc(Nc2nccc3[nH]ncc23)cc1OCCCN1CCCC1 and report
### Response > 10 µM

### Prompt Now consider CCN1CC(COc2cc(Nc3nc(C)cc(NC)n3)ccc2OC)C1 .
### Response < 0.1 µM

### Prompt Please answer likewise for CNc1ccnc(Nc2ccc(OC)c(OCCCN(C)C)c2)n1
### Response 0.1 to 1 µM

### Prompt And what about the compound CNc1ccnc(Nc2ccc(OC)c(OCC3CCN(C)C3)c2)n1 (single isomer, unassigned) [Compound 415] ?
### Response 1 to 10 µM
